Origin of values: ChEMBL document CHEMBL1909633

- Test system: RAW264.7
- Measurement description: Antiinflammatory action in mouse RAW264.7 cells assessed as inhibition of LPS-induced nitric oxide production treated 30 mins before LPS challenge measured after 24 hrs by griess reaction
- Assay type: functional, cell-based
param class (str): category from IC50; see ranges L = under 8 µM, M = from 8 µM up to 10 µM, H = 10 µM and over

Sample answers from the record:
| Molecule | Class assignment |
| --- | --- |
| C=C1C(=O)O[C@@H]2C[C@H](C)[C@@H]3[C@@H](O)CC(=O)[C@@]3(C)C[C@H]12 [BURRODIN] | M |
| C=C1C(=O)O[C@H]2C=C(C)[C@H]3CC[C@@](C)(O)[C@@H]3[C@@H](OC(C)=O)[C@H]12 | H |
| C=C1C(=O)O[C@H]2C[C@H](C)[C@@H]3C(OC(C)=O)CC(OC(C)=O)[C@@]3(C)[C@@H](O)[C@H]12 (stereo not given in full) [INUCHINENOLIDE C] | L |
| C=C1C(=O)O[C@H]2C[C@@H](COC(C)=O)[C@@H]3CCC(=O)[C@@]3(C)C[C@H]12 | L |
| C=C1C(=O)O[C@H]2C[C@@H](C)[C@@H]3C=CC(=O)[C@@]3(C)[C@@H](OC(C)=O)[C@H]12 [BIGELOVIN] | L |
| C=C1C(=O)O[C@H]2C[C@@](C)(O)C3=CC[C@](C)(O)[C@@H]3C[C@H]12 [GUAIANOLIDE] | H |

# ---- query molecule ----
Exercise: Class (by measured IC50) for C=C1C(=O)O[C@H]2C[C@@H](C)[C@@H]3CCC(=O)[C@@]3(C)[C@@H](O)[C@H]12 [CARPESIOLIN]
Solution: M
